assay.target: Human PD-1/PDCD1 Protein (PD-1) (human, UniProt Q15116 25-167, limits assumed)
Sequence (Q15116 25-167 limits assumed): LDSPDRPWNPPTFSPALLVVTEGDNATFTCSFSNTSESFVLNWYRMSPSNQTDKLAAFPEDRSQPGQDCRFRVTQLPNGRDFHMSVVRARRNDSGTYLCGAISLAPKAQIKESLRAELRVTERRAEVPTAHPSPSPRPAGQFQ
test.description: SPR, Biacore 8K; PD-1 captured by anti-His antibody, antibody in flow
quantity.name: pKd
FYI, pKd means -log10 of a concentration in mol per litre.

| binder | pKd |
| --- | --- |
| HM268-J7 (antibody, human IgG1, V domains shown, also called humanized HM268, VH ver.J / VL ver.7) VH: QVQLVQSGPEVKKPGASVKVVCKTSGYTFTSYYIQWVRQVPGQGLEWMGWIYFGDASTKYNEKFKGKTTLTADKSTSTAYMELRSLRSDDTAVYYCASYYGSYFDYWGQGTTVTVSS VL: DIQMTQNTSSLSASVGDRVTITCRASQDISNYLNWYQQKPDGTVKLLIYSTSRLHSGVPSRFSGSGSGTDYTLTISSLEQEDFATYYCQQGSTLPFTFGQGTKLEIK | 11.32 |

Here is another binder to look at.
Give me measured pKd, please, for this binder: HM297-I5 (antibody, human IgG1, V domains shown, also called humanized HM297, VH ver.I / VL ver.5) VH: QVQLVQSGPEVKKPGASVKVVCKASGYTFTDYNVDWVRQVPGQGLEWMGDIDPNNGGTIYNQKFKDRVTMTVDTSTRTAYMELRSLRSDDTAVYYCARWRGAMDYWGQGTLVTVSS VL: DIQMTQSPSSLSASVGDRVTITCRASQDIDNYLKWYQQKPDGTVKLLIYDTSRLHSGVPSRFSGSGSGTDYTLTISSLKQEDFATYYCQQGYTLPWTFGQGTKLEIK
8.66
